Examples of compounds with documented IC50 follow.
target: Estrogen receptor (Homo sapiens, UniProt P03372); assay: Antagonist activity at human ERalpha expressed in HEK293T cells after 24 hrs by ERE-based dual luciferase reporter gene assay
Sequence (P03372 whole entry): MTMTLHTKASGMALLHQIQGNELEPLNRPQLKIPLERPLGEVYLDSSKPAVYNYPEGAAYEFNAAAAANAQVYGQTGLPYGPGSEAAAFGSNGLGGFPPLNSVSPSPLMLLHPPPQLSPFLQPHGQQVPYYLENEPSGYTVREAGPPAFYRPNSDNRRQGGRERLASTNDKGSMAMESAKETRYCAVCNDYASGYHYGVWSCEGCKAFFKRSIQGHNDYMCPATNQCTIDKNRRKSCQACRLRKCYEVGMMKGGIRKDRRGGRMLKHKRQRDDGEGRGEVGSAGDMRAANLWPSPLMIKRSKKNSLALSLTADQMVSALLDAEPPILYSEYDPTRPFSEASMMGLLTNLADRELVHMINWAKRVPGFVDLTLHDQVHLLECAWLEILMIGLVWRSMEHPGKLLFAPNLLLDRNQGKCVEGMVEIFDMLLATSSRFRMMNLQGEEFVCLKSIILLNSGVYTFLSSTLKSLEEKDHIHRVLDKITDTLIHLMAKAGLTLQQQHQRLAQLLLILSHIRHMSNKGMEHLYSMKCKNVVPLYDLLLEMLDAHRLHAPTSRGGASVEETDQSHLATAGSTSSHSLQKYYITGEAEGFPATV
All answers are understood in nM, so give the number only.

Completed entries (count: 3):
Sure, the documented IC50 for COc1cc(/C=C/c2ccc(OS(=O)(=O)[C@H]3C[C@H]4O[C@@H]3C(c3ccc(O)cc3)=C4c3ccc(O)cc3)cc2)cc(OC)c1 is 27

Given item O=S(=O)(Oc1cccc2ccccc12)C1CC2OC1C(c1ccc(/C=C/c3cc(O)cc(O)c3)cc1)=C2c1ccc(O)cc1 (stereo unspecified) , the value recorded as its IC50 is 49

So for COc1cc(/C=C/c2ccc(OS(=O)(=O)[C@@H]3C[C@@H]4O[C@H]3C(c3ccc(O)cc3)=C4c3ccc(O)cc3)cc2)cc(OC)c1 , the logged IC50 turned out to be 3

---
Field IC50 (entry O=S(=O)(Oc1cccc(C(F)(F)F)c1)C1CC2OC1C(c1ccc(/C=C/c3cc(O)cc(O)c3)cc1)=C2c1ccc(O)cc1 (stereo unspecified) ) reads 72

The recorded IC50 for O=S(=O)(Oc1cccc(O)c1)C1CC2OC1C(c1ccc(/C=C/c3cc(O)cc(O)c3)cc1)=C2c1ccc(O)cc1 (stereo unspecified) is 6020

The measured IC50 associated with O=S(=O)(Oc1ccccc1Cl)C1CC2OC1C(c1ccc(/C=C/c3cc(O)cc(O)c3)cc1)=C2c1ccc(O)cc1 (stereo unspecified) reads 166
